# reported Ektopische Kontraktionen in Prozent/min; entries follow
system: Hunden, 24 Stunden nach zweistufiger Koronarligatur (Harris-Modell); experiment: Two-stage coronary ligation in the dog (Harris model); format: in vivo, Hund; settings: 60 min after 0,005 mmol/kg i.v.; mean x

{"smiles representation": "CCN(CC)CCCC(=O)N1c2ccccc2NC(=O)c2ccccc21", "Ektopische Kontraktionen in Prozent/min (Prozent)": 75}
{"smiles representation": "CN(C)CCCCCC(=O)N1c2ccccc2NC(=O)c2ccccc21", "Ektopische Kontraktionen in Prozent/min (Prozent)": 54}
{"smiles representation": "O=C1Nc2cc(Cl)ccc2N(C(=O)CCCCCCN2CCOCC2)c2ccccc21", "Ektopische Kontraktionen in Prozent/min (Prozent)": 42}
{"smiles representation": "CCN(CC)CCCCCC(=O)N1c2ccc(Cl)cc2NC(=O)c2ccccc21", "Ektopische Kontraktionen in Prozent/min (Prozent)": 37}
